- Tested on: NOMO1
- Method Summary: cell viability relative to DMSO control; higher = less cytotoxic
- Condition Label: RPMI 5 mM glucose + 10% dialyzed FBS; 48 h; 46.1 µM
Would you mind sorting the entries by cell viability according to these classes? low: < 20%; moderate: ≥ 20% and < 80%; high: ≥ 80%

Consider the following illustrative entries.
Compound | Cat
C[C@]12CC[C@H]3[C@@H](CC[C@H]4NC(=O)\C=C/[C@]34C)[C@@H]1CC[C@@H]2C(=O)NC5=CC(=CC=C5C(F)(F)F)C(F)(F)F | high
NNCCc1ccccc1 | moderate
Cc1nn(Cc2ccccc2Cl)c(C)c1CN(C)CC(O)COc1ccc(Cl)cc1 (centres undefined) | moderate
CC[C@H](NC1=C2N=C[NH]C2=NC=N1)C/3=N/C4=C(C(=CC=C4)F)C(=O)N3C5=CC=CC=C5 | moderate
CCN1CCN(c2ccc(Nc3cc(N(C)C(=O)Nc4c(Cl)c(OC)cc(OC)c4Cl)ncn3)cc2)CC1 | low
O=C(O)Cn1nnc(-c2cc(N3CCC(Oc4cc(F)ccc4Br)CC3)no2)n1 | moderate
CC[C@]12CC[C@H]3[C@@H](CCC/4=C/C(=O)CC[C@H]34)[C@@H]1\C=C/[C@@]2(O)C#C | high
CN(C)C1CCN(C(=O)c2ccc(NC(=O)Nc3nc(N4CCOCC4)nc(N4CCOCC4)n3)cc2)CC1 | moderate
CN[C@@H]1[C@@H](O)[C@@H](O[C@@H]2[C@@H](O)[C@H](O[C@H]3O[C@H](CN)[C@@H](O)[C@H](O)[C@H]3O)[C@@H](N)C[C@H]2NC(=O)[C@@H](O)CN)OC[C@]1(C)O | high
OC[C@H]1O[C@H]([C@H](O)[C@@H]1O)N2\C=C/C(=O)NC2=O | high

Request: Field: class (cell viability) — entry: CC1(C)O[C@@H]2C[C@H]3[C@@H]4C[C@H](F)C5=CC(=O)C=C[C@]5(C)[C@@]4(F)[C@@H](O)C[C@]3(C)[C@]2(C(=O)CO)O1
Response: high

Request: Field: class (cell viability) — entry: CNCCCC12CCC(c3ccccc31)c1ccccc12
Response: moderate

Request: Field: class (cell viability) — entry: C[C@H]1COC2=C3N1\C=C(C(O)=O)/C(=O)C3=CC(=C2N4CCN(C)CC4)F
Response: moderate

Request: Field: class (cell viability) — entry: COc1ccc(-c2ccc3ncc4c(c3c2)n(-c2ccc(N3CCNCC3)c(C(F)(F)F)c2)c(=O)n4C)cn1
Response: low

Request: Field: class (cell viability) — entry: c1ccc(CCCN2CCN(CCOC(c3ccccc3)c3ccccc3)CC2)cc1
Response: moderate

Request: Field: class (cell viability) — entry: NC\1=N\C(=O)N(\C=C1)[C@@H]2O[C@H](CO)[C@@H](O)[C@@H]2O
Response: low

Request: Field: class (cell viability) — entry: CC1=C(C)C(=O)C(C(CCCCCC(=O)O)c2ccccc2)=C(C)C1=O (centres undefined)
Response: low

Request: Field: class (cell viability) — entry: CCC[S+]([O-])c1ccc2[nH]c(NC(=O)OC)nc2c1 (centres undefined)
Response: low

Request: Field: class (cell viability) — entry: CC(C)c1nc(CN(C)C(=O)N[C@H](C(=O)N[C@@H](Cc2ccccc2)C[C@H](O)[C@H](Cc2ccccc2)NC(=O)OCc2cncs2)C(C)C)cs1
Response: moderate

* * *

- Test system: NOMO1
- Method Summary: cell viability relative to DMSO control; higher = less cytotoxic
- Condition Label: RPMI 5 mM glucose + 10% dialyzed FBS; 48 h; 0.000781 µM
Catalogue of cell viability values
Give just the numeric value; % need not be written.

Solved cases below.
Structure As Smiles | cell viability, %
C[C@H](NC(=O)c1sccc1OCc1ccc(Cl)cc1)c1ccccc1 | 91.3
CC(C)(O)CC[C@@H](O)[C@](C)(O)[C@H]1CC[C@@]2(O)C/3=C/C(=O)[C@@H]4C[C@@H](O)[C@@H](O)C[C@]4(C)[C@H]3CC[C@]12C | 108
CCOC(=O)c1ccc(OC(=O)CCCCCNC(=N)N)cc1 | 116
S=C(NCc1ccc2c(c1)OCO2)N1CCN(c2ncnc3c2oc2ccccc23)CC1 | 116

Request: # get_value(readout='cell viability', item= O=C(Nc1cc(Cl)cc2c1[nH]c1cnccc12)c1cccnc1 )
Response: 118

Request: # get_value(readout='cell viability', item= CNC(=O)c1ccc(N2C(=S)N(c3cnc(C#N)c(C(F)(F)F)c3)C(=O)C23CCC3)cc1F )
Response: 88

Request: # get_value(readout='cell viability', item= CC(C)(C)OC(=O)N[C@H]1CCCCC/C=C\[C@@H]2C[C@@]2(C(=O)N[S+](=O)([O-])C2CC2)NC(=O)[C@@H]2C[C@@H](OC(=O)N3Cc4cccc(F)c4C3)CN2C1=O )
Response: 97.4

Request: # get_value(readout='cell viability', item= CCOC(=O)[C@@H](N)Cc1ccc(-c2cc(O[C@H](c3ccc(Cl)cc3-n3ccc(C)n3)C(F)(F)F)nc(N)n2)cc1.O=C(O)CNC(=O)c1ccccc1 )
Response: 102

Request: # get_value(readout='cell viability', item= CCN1CCN(CC1)CC(=O)NC2=CC=C(C3=C2C4=C(S3)C=CC=C4)C5=C6O\C(=C/C(=O)C6=CC=C5)N7CCOCC7 )
Response: 120

Request: # get_value(readout='cell viability', item= CCN1CCN(c2ccc(Nc3cc(N(C)C(=O)Nc4c(Cl)c(OC)cc(OC)c4Cl)ncn3)cc2)CC1 )
Response: 103

Request: # get_value(readout='cell viability', item= CC[C@H](NC1=C2N=C[NH]C2=NC=N1)C/3=N/C4=C(C(=CC=C4)F)C(=O)N3C5=CC=CC=C5 )
Response: 125

Request: # get_value(readout='cell viability', item= C[C@@H]1COCCN1c1cc(C2([S@+](C)(=N)[O-])CC2)nc(-c2ccnc3[nH]ccc23)n1 )
Response: 97.6

Request: # get_value(readout='cell viability', item= CN[C@@H](C)[C@H]1[C@H](O)C[C@@]2(C)[C@@H]3CC[C@H]4C(C)(C)[C@@H](NC)CC[C@@]45C[C@@]35CC[C@]12C )
Response: 86.4

Request: # get_value(readout='cell viability', item= C[C@]12COC(=O)C[C@@H]1CC[C@@H]1[C@@H]2CC[C@@]2(C)[C@H]1CC[C@]2(C)O )
Response: 97.6

Request: # get_value(readout='cell viability', item= N#CCNC(=O)c1ccc(-c2ccnc(Nc3ccc(N4CCOCC4)cc3)n2)cc1 )
Response: 48.6

* * *

- Tested on: P12-Ichikawa
- Method Summary: cell viability relative to DMSO control; higher = less cytotoxic
- Condition Label: HPLM + 10% dialyzed FBS; 48 h; 0.00702 µM
Catalogue of cell viability values
Give just the numeric value; % need not be written.

Solved cases below.
Compound | Observed Result
CC(C)(C)NC(=O)Nc1cccc(Nc2ncc(F)c(NC(C)(C)CO)n2)c1 | 112
FC1=CC=C(C=C1)N2/C=C\C=C(C(=O)NC3=CC=C(OC4=C5C=C[NH]C5=NC=C4)C(=C3)F)/C2=O | 107
CN(C)[S+](=O)([O-])c1ccc2c(c1)C(=Cc1cc3c([nH]1)CCCC3)C(=O)N2 | 122
NNCCc1ccccc1 | 118
CC(C)C1NC(=O)C(NC(=O)C2=C3\N=C\4/C(=C(C)\C(=O)\C(=C4C(=O)NC5C(C)OC(=O)C(C(C)C)N(C)C(=O)CN(C)C(=O)C6CCCN6C(=O)C(NC5=O)C(C)C)N)OC3=C(C)C=C2)C(C)OC(=O)C(C(C)C)N(C)C(=O)CN(C)C(=O)C7CCCN7C1=O (stereo not drawn) | 7.74

Request: # get_value(readout='cell viability', item= C[C@](O)(CS(=O)(=O)c1ccc(F)cc1)C(=O)Nc1ccc(C#N)c(C(F)(F)F)c1 )
Response: 110

Request: # get_value(readout='cell viability', item= N[S+]([O-])(=O)C1=C(Cl)C=C2\N=C/N[S+]([O-])(=O)C2=C1 )
Response: 102

Request: # get_value(readout='cell viability', item= CC(C)CNc1ccnc(NCc2csc(-c3ccccc3)n2)n1 )
Response: 128

* * *

- Test system: P12-Ichikawa
- Method Summary: cell viability relative to DMSO control; higher = less cytotoxic
- Condition Label: RPMI 5 mM glucose + 10% FBS; 48 h; 0.569 µM
Catalogue of cell viability values

Compound | cell viability
CN[C@H]1CCC2=CC(=C(OC)C(=C2C/3=C/C=C(OC)\C(=O)/C=C13)OC)OC | 9.95%
CC(C)(C)NC(=O)Nc1cccc(Nc2ncc(F)c(NC(C)(C)CO)n2)c1 | 122%
O=C(C=CC#Cc1cccc(N[S+](=O)([O-])c2ccccc2)c1)NO | 122%
CC(C)C1NC(=O)C(NC(=O)C2=C3\N=C\4/C(=C(C)\C(=O)\C(=C4C(=O)NC5C(C)OC(=O)C(C(C)C)N(C)C(=O)CN(C)C(=O)C6CCCN6C(=O)C(NC5=O)C(C)C)N)OC3=C(C)C=C2)C(C)OC(=O)C(C(C)C)N(C)C(=O)CN(C)C(=O)C7CCCN7C1=O (configuration not stated) | 5.29%
CN(C)C1CCN(C(=O)c2ccc(NC(=O)Nc3nc(N4CCOCC4)nc(N4CCOCC4)n3)cc2)CC1 | 48.2%

Request: # get_value(readout='cell viability', item= CN[C@@H](C)[C@H]1[C@H](O)C[C@@]2(C)[C@@H]3CC[C@H]4C(C)(C)[C@@H](NC)CC[C@@]45C[C@@]35CC[C@]12C )
Response: 89.3%

Request: # get_value(readout='cell viability', item= C[C@H](NC(=O)c1sccc1OCc1ccc(Cl)cc1)c1ccccc1 )
Response: 81%
